target: Fuc(a1-2)[GalNAc(a1-4)]Gal(b1-4)GlcNAc; assay: glycan array binding signal (z-score within array); higher = stronger binding; settings: glycan notation: IUPAC condensed, linker removed
Shown is part of a subset that was picked to be rich in the strongest signals.
test_readout: glycan array binding signal (z-score)
Enter the number alone.

Prompt line: GET /values?readout=glycan array binding signal (z-score)&item= SLR2P3F12 (Tachypleus tridentatus), TAL2_TACTR (protein) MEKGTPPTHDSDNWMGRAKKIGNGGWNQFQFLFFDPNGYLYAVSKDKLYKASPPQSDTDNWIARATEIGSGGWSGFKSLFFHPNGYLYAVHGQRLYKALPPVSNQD
Response line: 2.01
